tested on: interleukin-5 (IL-5); assay: IL-5 production from OVA-sensitized mouse spleen cells induced by antigen stimulation (ELISA); format: cell-based; settings: test compound 1 μM; OVA-stimulated sensitized spleen cells, 3 days culture supernatant
Parameter IL-5: see the listing below.

Worked cases, answers included:
>>> result("Nc1nc(Cc2ccccc2)nc2c1nc(O)n2Cc1ccccc1 [Example 24, 2,9-Dibenzyl-8-Hydroxyadenine]")
"1,130 pg/ml"
>>> result("Nc1nc(C2CCCCC2)nc2c1nc(O)n2Cc1ccccc1 [Example 21, 9-Benzyl-2-Cyclohexyl-8-Hydroxyadenine]")
"1,291 pg/ml"
>>> result("Cc1nc(N)c2nc(O)n(Cc3cccc(Cl)c3)c2n1 [Example 18]")
"2,321 pg/ml"

Please report the measured IL-5 for Cc1nc(N)c2nc(S)n(Cc3ccccc3)c2n1 [Example 19, 9-Benzyl-8-Mercapto-2-Methyladenine] 1,782 pg/ml

Report measured IL-5; entry is CCCCCc1nc(N)c2nc(O)n(Cc3ccccc3)c2n1 [Example 20, 9-Benzyl-8-Hydroxy-2-Pentyladenine] 670 pg/mL

Item CC(C)c1nc(N)c2nc(O)n(Cc3ccccc3)c2n1 [Example 45, 9-Benzyl-8-Hydroxy-2-Isopropyladenine] : provide IL-5 699 pg/mL

---

Consider the following molecules and their measured IFN-γ readings.
system: interferon-γ (IFN-γ); assay: IFN-γ production from OVA-sensitized mouse spleen cells induced by antigen stimulation (ELISA); type: cell-based; conditions: test compound 10 μM; OVA-stimulated sensitized spleen cells, 3 days culture supernatant
Give just the number in ng/mL; leave the unit off.

Some entries whose results are on file:
>>> numericresult("Cc1nc(N)c2nc(O)n(Cc3cccc(Cl)c3)c2n1")
181
>>> numericresult("Nc1nc(C2CCCCC2)nc2c1nc(O)n2Cc1ccccc1 [Example 21, 9-Benzyl-2-Cyclohexyl-8-Hydroxyadenine]")
170
>>> numericresult("Nc1nc(Cc2ccccc2)nc2c1nc(O)n2Cc1ccccc1 [Example 24, 2,9-Dibenzyl-8-Hydroxyadenine]")
244

Identify IFN-γ associated with the molecule CC(C)c1nc(N)c2nc(O)n(Cc3ccccc3)c2n1 [Example 45, 9-Benzyl-8-Hydroxy-2-Isopropyladenine] 187

Supply measured IFN-γ of Cc1nc(N)c2nc(S)n(Cc3ccccc3)c2n1 in your reply. 139

Assign IFN-γ to the following record: CCCCCc1nc(N)c2nc(O)n(Cc3ccccc3)c2n1 [Example 20, 9-Benzyl-8-Hydroxy-2-Pentyladenine] 219

---

System: interleukin-4 (IL-4)
Assay: IL-4 production from OVA-sensitized mouse spleen cells induced by antigen stimulation (ELISA)
Type: cell-based
Settings: test compound 0.1 μM; OVA-stimulated sensitized spleen cells, 3 days culture supernatant
Experimental: 1) Preparation of Sensitized Mouse Spleen Cells Seven week-old male BALB/c mice were immunized with 4 mg of aluminium hydroxide gel (100 μl) adsorbing 10 μg of ovalbumin (OVA) by intraperitoneal administration. […] To the spleen cell suspension (5×10^6 cells/200 μl/well), 1/1000 volume of dimethyl sulfoxide solution dissolving OVA (0.5 mg/ml) and a test compound at a specific concentration was added. […] After 3 days, cytokines in the culture supernatant were determined by ELISA. […]
recordedMetric: log10(IL-4) (log10 of the value in pg/mL)
The figures below represent log10 of IL-4, where IL-4 is stated in pg/mL.

Give the measured log10(IL-4) for Cc1nc(N)c2nc(O)n(Cc3cccc(Cl)c3)c2n1 2.40

Give me measured log10(IL-4), please, for this molecule: Nc1nc(C2CCCCC2)nc2c1nc(O)n2Cc1ccccc1 [Example 21, 9-Benzyl-2-Cyclohexyl-8-Hydroxyadenine] 2.28

Quick one: give measured log10(IL-4) for CCCCCc1nc(N)c2nc(O)n(Cc3ccccc3)c2n1 [Example 20, 9-Benzyl-8-Hydroxy-2-Pentyladenine] 1.30

Fill in reported log10(IL-4) for this entry: CC(C)c1nc(N)c2nc(O)n(Cc3ccccc3)c2n1 [Example 45, 9-Benzyl-8-Hydroxy-2-Isopropyladenine] 1.93

Answer with the recorded log10(IL-4) for the molecule listed here: Nc1nc(Cc2ccccc2)nc2c1nc(O)n2Cc1ccccc1 [Example 24, 2,9-Dibenzyl-8-Hydroxyadenine] 2.29

Name the recorded log10(IL-4) of the item Cc1nc(N)c2nc(S)n(Cc3ccccc3)c2n1 in your answer. 2.47
